Biological target: FES Catalytic Domain (Homo sapiens, UniProt P07332)
Construct: For all of them, we expressed and purified the catalytic domain separately; His-tag; made in house; host or cells: Escherichia coli
Sequence (P07332 561-822 limits assumed): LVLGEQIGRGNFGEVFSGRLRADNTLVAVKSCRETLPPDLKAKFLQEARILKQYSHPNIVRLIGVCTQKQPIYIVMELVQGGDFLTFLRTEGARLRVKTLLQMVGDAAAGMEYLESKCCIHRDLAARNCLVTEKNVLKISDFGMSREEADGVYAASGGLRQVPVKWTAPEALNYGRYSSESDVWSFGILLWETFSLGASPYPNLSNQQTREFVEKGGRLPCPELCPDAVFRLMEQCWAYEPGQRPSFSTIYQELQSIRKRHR
Assay: Differential Scanning Fluorimetry (DSF) Tm shift
Format: binding
Settings: 2 µM protein, 10 µM inhibitor, average of 3 experiments, each in duplicate
Output class 1 for Melting temperature (Tm) shift not less than 0.5 degrees Celcius; output class 0 otherwise.

INSERT INTO results (molecule, class) VALUES
  ('Nc1ncnc2c1c(I)cn2[C@@H]1O[C@H](CO)[C@@H](O)[C@H]1O [5-Iodotubercidin]', 'class 1'),
  ('Nc1ncnc2c1c(-c1ccc(Oc3ccccc3)cc1)cn2C1CCCC1 [Lck Inhibitor]', 'class 1'),
  ('CC#CC(=O)Nc1cc2c(Nc3ccc(F)c(Cl)c3)ncnc2cn1 [EGFR/ErbB-2/ErbB-4 Inhibitor]', 'class 0'),
  ('CCCC(=O)Oc1ccc2[nH]c(C(=O)c3cc4ccccc4[nH]3)cc2c1', 'class 0'),
  ('Cl.Cl.NCCNc1ncc(C(N)=O)c(Nc2cccc(C(F)(F)F)c2)n1 [Syk Inhibitor II]', 'class 1'),
  ('CCCCc1c(-c2ccc(O)cc2)[nH]c2nccnc12 [Aloisine A, RP107, Aloisine A]', 'class 1'),
  ('CC(C)n1cnc2c(NCc3ccccc3O)nc(NCCCO)nc21 [Cdk Inhibitor, p35]', 'class 1'),
  ('O=c1c(O)c(-c2ccc(O)c(O)c2)oc2cc(O)c(O)c(O)c12 [Quercetagetin]', 'class 0'),
  ('COc1cc2ncnc(Nc3ccc(OCc4ccccc4)cc3)c2cc1OC [EGFR/ErbB-2 Inhibitor]', 'class 0'),
  ('NC(=O)Nc1sc(-c2ccccc2)cc1C(N)=O [IKK-2 Inhibitor VI]', 'class 1'),
  ('O=C1Nc2ccc(Cl)cc2C1=Cc1cc(Cl)c(O)c(Cl)c1 [PKR Inhibitor, Negative Control]', 'class 0'),
  ('Brc1c(Br)c(Br)c2n[nH]nc2c1Br [Casein Kinase II Inhibitor I]', 'class 0'),
  ('COc1cc2ncnc(Nc3ccc(NC(=O)c4ccccc4)cc3)c2cc1OC [Aurora Kinase Inhibitor II]', 'class 0'),
  ('O=C1Nc2ccccc2C1=C1Nc2ccccc2C1=NOCCC(O)CO (stereo not shown) [Indirubin Derivative E804]', 'class 1'),
  ('Nc1cccc(-c2cc3c(Oc4cccc(O)c4)ncnc3[nH]2)c1 [GSK3b Inhibitor XII, TWS119]', 'class 1'),
  ('COc1cc2nccc(Oc3ccc(NC(=S)NC(=O)c4ccccc4C)cc3)c2cc1OC [PDGF RTK Inhibitor]', 'class 1'),
  ('COc1ccc2c(c1)c(C1=C(c3c[nH]c4ccccc34)C(=O)NC1=O)cn2CCCN(C)C [Gö 6983]', 'class 1'),
  ('O=C1Cc2c([nH]c3ccc(Br)cc23)-c2ccccc2N1 [Kenpaullone]', 'class 0'),
  ('CC(C)n1cnc2c(Nc3cccc(Cl)c3)nc(NCCO)nc21 [Compound 52]', 'class 1'),
  ('NC(=O)Nc1cc(-c2ccccc2)sc1C(N)=O [IKK-2 Inhibitor XI]', 'class 1'),
  ('NC(=O)Nc1sc(-c2ccc(F)cc2)cc1C(N)=O [IKK-2 Inhibitor IV]', 'class 1'),
  ('CC(C)(C)c1nc2c3cc[nH]c(=O)c3c3cc(F)ccc3c2[nH]1 [JAK Inhibitor I]', 'class 0'),
  ('O=C1C(Cl)=C(N2C(=O)CCC2=O)C(=O)c2ccccc21 [MEK Inhibitor II]', 'class 0'),
  ('CC(C)c1nn(-c2c(Cl)cccc2Cl)c2nc(Cc3ccc(OCCO)cc3)[nH]c(=O)c12 [Cdk/Crk Inhibitor]', 'class 1'),
  ('O=C1NC(=O)C(=Cc2ccc3c(c2)OCO3)S1 [PI 3-Kγ Inhibitor VII]', 'class 0'),
  ('O=C1NC(=O)C(c2cn(CCCn3ccnc3)c3ccccc23)=C1Nc1ccccc1 [PKCb Inhibitor]', 'class 0'),
  ('N#Cc1cnc2cnc(NCc3cccnc3)cc2c1Nc1ccc(F)c(Cl)c1 [Tpl2 Kinase Inhibitor]', 'class 0'),
  ('COc1cc(Nc2ncc3ccn(-c4cccc(CCC#N)c4)c3n2)cc(OC)c1OC [Keratinocyte Differentiation Inducer]', 'class 1'),
  ('Cn1cc(/C=C2\C(=O)Nc3ccc(S(N)(=O)=O)cc32)c2ccccc21 [Syk Inhibitor]', 'class 1'),
  ('Cc1ccc([N+](=O)[O-])cc1S(=O)(=O)N(C)N=Cc1cnc2ccc(Br)cn12.Cl.O.O [PI 3-Kα Inhibitor VIII]', 'class 1'),
  ('COc1cc2ncnc(Nc3ccc(Cl)cc3Cl)c2cc1OC [Ste11 MAPKKK Activation Inhibitor]', 'class 0');
